measurement-protocol: Solubility in the physiological pH range
Type: physicochemical
experimental-conditions: aqueous buffer; physiological pH range of 2-6.8

| cpd-smiles | solubility |
| --- | --- |
| Cn1c(C2(NC(=O)c3ccc4c(C5CCCC5)c(-c5ncc(Br)cn5)n(C)c4c3)CCC2)nc2ccc(/C=C/C(=O)O)cc21 | < 0.2 µg/mL |
